Tested on: NCI-H522
procedure_details: NCI tumour cell line growth inhibition, 48 h
Activity calls are given as the source filed them. Rule as the data show it: active = GI50 up to about 1.1 µM and inactive = higher.
Recorded GI50 by entry

{"molecule": "O=C(C(Cl)Cl)N(O)c1ccccc1OCc1ccccc1", "GI50": "25.6 µM (inactive)"}
{"molecule": "Sc1ncc(-c2cncc(-c3cnc(S)nc3)n2)cn1", "GI50": "> 100 µM (inactive)"}
{"molecule": "Nn1c(CCCCCCCCc2nnc(-c3c(O)ccc4ccccc34)n2N)nnc1-c1c(O)ccc2ccccc12", "GI50": "> 100 µM (inactive)"}
{"molecule": "CC1=CC=C2C(C)(C)CC[C@@H]3OC(=O)[C@H]1[C@]23C", "GI50": "> 100 µM (inactive)"}
{"molecule": "C/C(=N\\NC(=O)c1ccc(Cl)cc1)c1nc2cccnc2[nH]1", "GI50": "18.7 µM (inactive)"}
{"molecule": "CSC1=Nc2ccccc2-c2nc(-c3ccccc3)cc(-c3ccccc3)c2C1", "GI50": "4.7 µM (inactive)"}
{"molecule": "O=c1oc2ccccc2c(-c2ccc(O)cc2)c1Oc1ccccc1", "GI50": "3.47 µM (inactive)"}
{"molecule": "Brc1cc(CCOC2CCCCO2)c(-c2sccc2CCOC2CCCCO2)s1 (stereo not given)", "GI50": "14.4 µM (inactive)"}
{"molecule": "NCC(Cl)C(O)c1c[nH]c(N)n1 (stereo not given)", "GI50": "1.93 µM (inactive)"}
{"molecule": "O=C(NC(C(F)(F)F)(C(F)(F)F)P(=O)(c1ccccc1)c1ccccc1)C(C(F)(F)F)C(F)(F)F", "GI50": "25.9 µM (inactive)"}

* * *

A collection of compounds and their measured GI50
Tested on: XF498
procedure_details: NCI tumour cell line growth inhibition, 48 h
Active and inactive are the calls of the source. Cut-off read from the data, not from the text of the source: active = GI50 up to about 1.1 µM and inactive = higher.
recorded_endpoint: GI50

{"compound": "COc1cc(CO)cc2c1[nH]c1ccccc12", "target_of_assay": "XF498", "result": "> 25 µM (inactive)"}
{"compound": "CCN(CC)CCO[Si](OCCN(CC)CC)(OCCN(CC)CC)OCCN(CC)CC", "target_of_assay": "XF498", "result": "> 100 µM (inactive)"}
{"compound": "CCOC(=O)Cc1cc(OC)c(OC)cc1/C(Cl)=C(\\CO)c1ccc(OC)c(OC)c1", "target_of_assay": "XF498", "result": "16.9 µM (inactive)"}
{"compound": "Cc1nc(Nc2ccc([N+](=O)[O-])cc2)sc1C(/C=C/c1ccc(N(C)C)cc1)=N/NC(=O)c1ccccc1", "target_of_assay": "XF498", "result": "> 100 µM (inactive)"}
{"compound": "Cc1c(C(=O)C/C(=N/NC(=O)c2ccccc2O)C(=O)Nc2ccccc2C(C)C)[n+]([O-])c2ccccc2[n+]1[O-]", "target_of_assay": "XF498", "result": "> 100 µM (inactive)"}
{"compound": "CCCCOC(=O)CNC(=O)OC/C=C/C#CC#C/C=C/COC(=O)NCC(=O)OCCCC", "target_of_assay": "XF498", "result": "> 10 µM (inactive)"}
{"compound": "O=C1C2C=CC(n3[nH]c(=O)n(Cc4ccccc4)c3=O)CC2C(=O)N1c1cccc(Cl)c1 (centres undefined)", "target_of_assay": "XF498", "result": "65.9 µM (inactive)"}
{"compound": "O=C(Nc1ccc(Cl)c(Cl)c1)C(=O)C(C(=O)c1ccccc1F)C1OC(=O)c2ccccc21 (centres undefined)", "target_of_assay": "XF498", "result": "31.8 µM (inactive)"}
{"compound": "OCc1cc2c(cn1)[nH]c1ccc(NCc3ccccc3)cc12", "target_of_assay": "XF498", "result": "25.8 µM (inactive)"}
